target: Human HDAC5 (Homo sapiens); construct: full length with C-terminal His tag, MW=51.1 kDa; His (C); host or cells: baculovirus expression system; assay: HDAC5 biochemical assay, class IIa-specific substrate; conditions: read-out: HDAC Isoform IC50 (nM) 5
Sequence (Q9UQL6 656-1122 limits assumed): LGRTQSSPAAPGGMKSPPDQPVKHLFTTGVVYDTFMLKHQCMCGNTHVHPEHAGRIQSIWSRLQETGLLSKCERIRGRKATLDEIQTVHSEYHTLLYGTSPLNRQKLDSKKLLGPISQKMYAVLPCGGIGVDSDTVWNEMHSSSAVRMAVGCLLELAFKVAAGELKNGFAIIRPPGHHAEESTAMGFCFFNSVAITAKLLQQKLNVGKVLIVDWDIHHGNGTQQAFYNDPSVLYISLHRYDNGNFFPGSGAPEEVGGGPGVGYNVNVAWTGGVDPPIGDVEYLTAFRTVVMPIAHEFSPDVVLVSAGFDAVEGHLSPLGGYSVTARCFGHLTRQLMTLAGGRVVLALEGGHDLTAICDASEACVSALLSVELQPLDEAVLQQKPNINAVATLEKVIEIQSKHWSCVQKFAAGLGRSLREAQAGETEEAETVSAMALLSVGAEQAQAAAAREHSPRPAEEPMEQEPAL
Documented IC50 across a set of compounds
parameter: IC50

FC(F)(F)c1nc(-c2ccc(CN(c3ccc(N4CCCC4)nc3)c3cnccn3)s2)no1 [Example AP] | ≤ 10000 nM
FC(F)(F)c1nc(-c2ccc(CN(c3cnccn3)c3ccc4ncccc4n3)s2)no1 [Example X] | ≤ 1000 nM
FC(F)(F)c1nc(-c2ccc(CN(c3cnccn3)c3cnccn3)s2)no1 [Example BA] | ≤ 1000 nM
O=C(c1cnnc(N(Cc2ccc(-c3noc(C(F)(F)F)n3)s2)c2cnccn2)c1)N1CCOCC1 [Example EB] | ≤ 1000 nM
Cc1ncnc(C)c1N(Cc1ccc(-c2noc(C(F)(F)F)n2)s1)c1cnccn1 [Example DC] | ≤ 500 nM
COC1CN(C(=O)c2ccc(N(Cc3ccc(-c4noc(C(F)(F)F)n4)s3)c3cnccn3)nn2)C1 [Example DR] | ≤ 500 nM
FC(F)(F)c1cnc(N(Cc2ccc(-c3noc(C(F)(F)F)n3)s2)c2cnccn2)cn1 [Example BK] | ≤ 10000 nM
Cc1cncc(N(Cc2ccc(-c3noc(C(F)(F)F)n3)s2)c2cnccn2)n1 [Example BP] | ≤ 500 nM
FC(F)(F)c1cnnc(N(Cc2ccc(-c3noc(C(F)(F)F)n3)s2)c2cc(C(F)(F)F)cnn2)c1 [Example EU] | ≤ 10000 nM
Cc1nccc(N(Cc2ccc(-c3noc(C(F)(F)F)n3)s2)c2cnccn2)n1 [Example CA] | ≤ 1000 nM
NC(=O)c1cnnc(N(Cc2ccc(-c3noc(C(F)(F)F)n3)s2)c2cnccn2)c1 [Example DX] | ≤ 500 nM
O=C(O)c1ccc(N(Cc2sc(-c3noc(C(F)(F)F)n3)cc2F)c2cnccn2)nn1 [Example EZ] | ≤ 10000 nM
NC(=O)c1ccc(N(Cc2ccc(-c3noc(C(F)(F)F)n3)s2)c2cnccn2)nn1 [Example DQ] | ≤ 500 nM
Cc1ccc(N(Cc2ccc(-c3noc(C(F)(F)F)n3)s2)c2cnccn2)nn1 [Example DF] | ≤ 10000 nM
Cn1cnc2cc(N(Cc3ccc(-c4noc(C(F)(F)F)n4)s3)c3cnccn3)ncc21 [Example AE] | ≤ 500 nM
FC(F)(F)c1cnnc(N(Cc2ccc(-c3noc(C(F)(F)F)n3)s2)c2ccncc2)c1 [Example EJ] | ≤ 10000 nM
FC(F)(F)c1nc(-c2ccc(CN(c3cccnc3)c3cnccn3)s2)no1 [Example AO] | ≤ 500 nM
